Recorded LD50 for the following compounds
assay: Acute toxicity (LD50 / LDO), oral route, mice; format: in vivo; conditions: mouse, in vivo
recorded-metric: LD50

                              smiles_string  recorded_metric      observed
0  CCCCCCCCCCCCOc1ccc2[nH]c(-c3ccccc3)cc2c1             LD50  > 5000 mg/kg
1  CCCCCCCCCCCCOc1ccc(-c2cc3ccc(C)cc3[nH]2)cc1             LD50  > 3000 mg/kg
2          COc1ccc(-c2cc3ccc(C)cc3[nH]2)cc1             LD50  > 3000 mg/kg
